Listing: IFNg Total SFC of selected substances
# Tested on: peripheral blood mononuclear cells (PBMC), T cells
# test: ELISpot assay, gamma-interferon release (SFC) after stimulation with a-synuclein epitope pools
# Assay type: cell-based, human
# cond: Patients Summary; PD patients; single peptide

substance | system | IFNg Total SFC / SFC
3521.0029 (NVGGAVVTGV; listed as Homo sapiens) | peripheral blood mononuclear cells (PBMC), T cells | 0
3521.0022 (GSIAAATGF; listed as Homo sapiens) | peripheral blood mononuclear cells (PBMC), T cells | 0
3521.0008 (IAAATGFVK; listed as Homo sapiens) | peripheral blood mononuclear cells (PBMC), T cells | 0
3521.0073 (TTVAEKTKEQVTNVG; listed as Homo sapiens) | peripheral blood mononuclear cells (PBMC), T cells | 0
3521.0044 (GVTAVAQKTV; listed as Homo sapiens) | peripheral blood mononuclear cells (PBMC), T cells | 0
3521.0004 (KTKEGVLYV; listed as Homo sapiens) | peripheral blood mononuclear cells (PBMC), T cells | 0
3521.0055 (QEGILEDMPV; listed as Homo sapiens) | peripheral blood mononuclear cells (PBMC), T cells | 0
3521.0085 (EGVVHGVATVAEKTK; listed as Homo sapiens) | peripheral blood mononuclear cells (PBMC), T cells | 0
3521.007 (GVVAAAEKTK; listed as Homo sapiens) | peripheral blood mononuclear cells (PBMC), T cells | 225
3521.0047 (IAAATGFVKK; listed as Homo sapiens) | peripheral blood mononuclear cells (PBMC), T cells | 0
3521.0078 (YVGSKTKKGVVHGVA; listed as Homo sapiens) | peripheral blood mononuclear cells (PBMC), T cells | 474
3521.0028 (MPSEEGYQDY; listed as Homo sapiens) | peripheral blood mononuclear cells (PBMC), T cells | 0
3521.0037 (LYVGSKTKEG; listed as Homo sapiens) | peripheral blood mononuclear cells (PBMC), T cells | 248
3521.0063 (GVVHGVTTV; listed as Homo sapiens) | peripheral blood mononuclear cells (PBMC), T cells | 143
3521.0035 (SIAAATGFVK; listed as Homo sapiens) | peripheral blood mononuclear cells (PBMC), T cells | 1946
3521.001 (VFMKGLSKA; listed as Homo sapiens) | peripheral blood mononuclear cells (PBMC), T cells | 75
3521.0051 (EEGAPQEGIL; listed as Homo sapiens) | peripheral blood mononuclear cells (PBMC), T cells | 427
3521.0056 (YEMPSEEGYQ; listed as Homo sapiens) | peripheral blood mononuclear cells (PBMC), T cells | 0
3521.0065 (FVKKDQLGK; listed as Homo sapiens) | peripheral blood mononuclear cells (PBMC), T cells | 0
3521.0058 (SEEGYQDYEP; listed as Homo sapiens) | peripheral blood mononuclear cells (PBMC), T cells | 0
3521.0059 (AEAAGKTKEG; listed as Homo sapiens) | peripheral blood mononuclear cells (PBMC), T cells | 0
3521.0076 (PGKTKEGVLYVGSKT; listed as Homo sapiens) | peripheral blood mononuclear cells (PBMC), T cells | 80
3521.0031 (YVGSKTKEGV; listed as Homo sapiens) | peripheral blood mononuclear cells (PBMC), T cells | 153
3521.003 (GSIAAATGFV; listed as Homo sapiens) | peripheral blood mononuclear cells (PBMC), T cells | 0
3521.0009 (LYVGSKTKK; listed as Homo sapiens) | peripheral blood mononuclear cells (PBMC), T cells | 326
3521.0057 (NEEGAPQEGI; listed as Homo sapiens) | peripheral blood mononuclear cells (PBMC), T cells | 0
3521.0075 (KQGVAEAPGKTKEGV; listed as Homo sapiens) | peripheral blood mononuclear cells (PBMC), T cells | 209
3521.0001 (PVDPDNEAY; listed as Homo sapiens) | peripheral blood mononuclear cells (PBMC), T cells | 0
3521.0074 (VAAAEKTKQGVAEAP; listed as Homo sapiens) | peripheral blood mononuclear cells (PBMC), T cells | 67
3521.0038 (EMPSEEGYQD; listed as Homo sapiens) | peripheral blood mononuclear cells (PBMC), T cells | 0
3521.0012 (KTKQGVAEA; listed as Homo sapiens) | peripheral blood mononuclear cells (PBMC), T cells | 0
3521.0018 (MPVDPDNEA; listed as Homo sapiens) | peripheral blood mononuclear cells (PBMC), T cells | 0
3521.0072 (EGVVHGVTTVAEKTK; listed as Homo sapiens) | peripheral blood mononuclear cells (PBMC), T cells | 0
3521.0027 (AYEMPSEEGY; listed as Homo sapiens) | peripheral blood mononuclear cells (PBMC), T cells | 0
3521.0079 (KGVVHGVATVAEKTK; listed as Homo sapiens) | peripheral blood mononuclear cells (PBMC), T cells | 0
3521.005 (APGKTKEGVL; listed as Homo sapiens) | peripheral blood mononuclear cells (PBMC), T cells | 44
3521.0015 (KTKEQVTNV; listed as Homo sapiens) | peripheral blood mononuclear cells (PBMC), T cells | 0
3521.0025 (EEGAPQEGI; listed as Homo sapiens) | peripheral blood mononuclear cells (PBMC), T cells | 290
3521.0026 (MPSEEGYQD; listed as Homo sapiens) | peripheral blood mononuclear cells (PBMC), T cells | 0
3521.0021 (PGKTKEGVL; listed as Homo sapiens) | peripheral blood mononuclear cells (PBMC), T cells | 36
3521.0014 (KTVEGAGSI; listed as Homo sapiens) | peripheral blood mononuclear cells (PBMC), T cells | 0
3521.0013 (VTNVGGAVV; listed as Homo sapiens) | peripheral blood mononuclear cells (PBMC), T cells | 209
3521.0045 (KTKKGVVHGV; listed as Homo sapiens) | peripheral blood mononuclear cells (PBMC), T cells | 133
